# ASSAY_PROCEDURE: Solvent solubility of Compound 1 free base (stepwise solvent addition to amorphous material)
# Format: physicochemical
# TEST_CONTEXT: 40 °C, organic solvent or mixture, thermodynamic from solid; in 1-Propanol; read-out: Approx. Solubility
QUANTITY: solubility

Incoming: Please give the documented solubility of C[C@@H]1CCc2ncc(F)cc2[C@H]2CCCN2c2ccn3ncc(c3n2)C(=O)N1
Outgoing: > 100 mg/mL

----------
# ASSAY_PROCEDURE: Solvent solubility of Compound 1 free base (stepwise solvent addition to amorphous material)
# Format: physicochemical
# TEST_CONTEXT: 40 °C, organic solvent or mixture, thermodynamic from solid; in Cyclopentylmethyl ether; read-out: Approx. Solubility
QUANTITY: solubility

Incoming: Please give the documented solubility of C[C@@H]1CCc2ncc(F)cc2[C@H]2CCCN2c2ccn3ncc(c3n2)C(=O)N1 [Compound 1]
Outgoing: < 5000 µg/mL

----------
# ASSAY_PROCEDURE: Solvent solubility of Compound 1 free base (stepwise solvent addition to amorphous material)
# Assay type: physicochemical
# TEST_CONTEXT: 40 °C, organic solvent or mixture, thermodynamic from solid; in Cyclohexane; read-out: Approx. Solubility
QUANTITY: solubility

Incoming: Please give the documented solubility of C[C@@H]1CCc2ncc(F)cc2[C@H]2CCCN2c2ccn3ncc(c3n2)C(=O)N1 [Compound 1]
Outgoing: < 5000 µg/mL

----------
# ASSAY_PROCEDURE: Solvent solubility of Compound 1 free base (stepwise solvent addition to amorphous material)
# Assay type: physicochemical
# TEST_CONTEXT: 40 °C, organic solvent or mixture, thermodynamic from solid; in N,N-Dimethylacetamide; read-out: Approx. Solubility
QUANTITY: solubility

Incoming: Please give the documented solubility of C[C@@H]1CCc2ncc(F)cc2[C@H]2CCCN2c2ccn3ncc(c3n2)C(=O)N1
Outgoing: > 100 mg/mL

----------
# ASSAY_PROCEDURE: Solvent solubility of Compound 1 free base (stepwise solvent addition to amorphous material)
# Assay type: physicochemical
# TEST_CONTEXT: 40 °C, organic solvent or mixture, thermodynamic from solid; in TBME:Heptane (60:40 v/v); read-out: Approx. Solubility
QUANTITY: solubility

Incoming: Please give the documented solubility of C[C@@H]1CCc2ncc(F)cc2[C@H]2CCCN2c2ccn3ncc(c3n2)C(=O)N1
Outgoing: < 5000 µg/mL

----------
# ASSAY_PROCEDURE: 1 week stability tests (40° C./75% RH, 80° C., ambient light; XRPD and UPLC)
# Assay type: physicochemical
# TEST_CONTEXT: ambient light
QUANTITY: change in purity after 1 week stability test (UPLC)

[[record]]
compound = "CS(=O)(=O)O.C[C@@H]1CCc2ncc(F)cc2[C@H]2CCCN2c2ccn3ncc(c3n2)C(=O)N1 [Compound 1 mesylate]"
observed_result = "no change to purity"

[[record]]
compound = "C[C@@H]1CCc2ncc(F)cc2[C@H]2CCCN2c2ccn3ncc(c3n2)C(=O)N1.O=C(O)CC(O)(CC(=O)O)C(=O)O [Compound 1 citrate]"
observed_result = "no change to purity"

[[record]]
compound = "C[C@@H]1CCc2ncc(F)cc2[C@H]2CCCN2c2ccn3ncc(c3n2)C(=O)N1.O=S(=O)(O)c1ccccc1 [Compound 1 besylate]"
observed_result = "no change to purity"


----------
# ASSAY_PROCEDURE: Solvent solubility of Compound 1 free base (stepwise solvent addition to amorphous material)
# Assay type: physicochemical
# TEST_CONTEXT: 40 °C, organic solvent or mixture, thermodynamic from solid; in TBME; read-out: Approx. Solubility
QUANTITY: solubility

Incoming: Please give the documented solubility of C[C@@H]1CCc2ncc(F)cc2[C@H]2CCCN2c2ccn3ncc(c3n2)C(=O)N1 [Compound 1]
Outgoing: < 5000 µg/mL

----------
# ASSAY_PROCEDURE: Solvent solubility of Compound 1 free base (stepwise solvent addition to amorphous material)
# Type: physicochemical
# TEST_CONTEXT: 40 °C, organic solvent or mixture, thermodynamic from solid; in Isopropyl acetate; read-out: Approx. Solubility
QUANTITY: solubility

Incoming: Please give the documented solubility of C[C@@H]1CCc2ncc(F)cc2[C@H]2CCCN2c2ccn3ncc(c3n2)C(=O)N1
Outgoing: < 5000 µg/mL

----------
# ASSAY_PROCEDURE: Thermodynamic solubility
# Assay type: physicochemical
# TEST_CONTEXT: pH 6.8 potassium phosphate buffer, aqueous buffer, thermodynamic from solid; pH 6.8 buffer, 24 hours, ambient temperature; read-out: Concentration (thermodynamic solubility)
QUANTITY: solubility thermodynamic at 24 h (µg/mL)
Numbers only, in µg/mL.

[[record]]
molecule = "C[C@@H]1CCc2ncc(F)cc2[C@H]2CCCN2c2ccn3ncc(c3n2)C(=O)N1.O=C(O)CC(O)(CC(=O)O)C(=O)O [Compound 1 citrate]"
quantity = "solubility thermodynamic at 24 h"
observed_result = 900

[[record]]
molecule = "CS(=O)(=O)O.C[C@@H]1CCc2ncc(F)cc2[C@H]2CCCN2c2ccn3ncc(c3n2)C(=O)N1 [Compound 1 mesylate]"
quantity = "solubility thermodynamic at 24 h"
observed_result = 1500


Now for a further molecule.
Incoming: Please give the documented solubility thermodynamic at 24 h of C[C@@H]1CCc2ncc(F)cc2[C@H]2CCCN2c2ccn3ncc(c3n2)C(=O)N1.O=S(=O)(O)c1ccccc1 [Compound 1 besylate]
Outgoing: 1900

----------
# ASSAY_PROCEDURE: Solvent solubility of Compound 1 free base (stepwise solvent addition to amorphous material)
# Format: physicochemical
# TEST_CONTEXT: 40 °C, organic solvent or mixture, thermodynamic from solid; in Ethyl acetate; read-out: Approx. Solubility
QUANTITY: solubility

Incoming: Please give the documented solubility of C[C@@H]1CCc2ncc(F)cc2[C@H]2CCCN2c2ccn3ncc(c3n2)C(=O)N1
Outgoing: < 5 mg/mL

----------
# ASSAY_PROCEDURE: Solvent solubility of Compound 1 free base (stepwise solvent addition to amorphous material)
# Format: physicochemical
# TEST_CONTEXT: 40 °C, organic solvent or mixture, thermodynamic from solid; in Toluene; read-out: Approx. Solubility
# Experimental: A solid Compound 1 was obtained as follows. A […] of solution containing about 330 mg of Compound 1 in warm 1,4-dioxane was divided between 33, 2 mL glass vials (1.5 mL in each). The solutions were frozen and freeze-dried by lyophilization overnight. The resulting material was then analyzed by XRPD to confirm mostly amorphous material. […]
QUANTITY: solubility

Incoming: Please give the documented solubility of C[C@@H]1CCc2ncc(F)cc2[C@H]2CCCN2c2ccn3ncc(c3n2)C(=O)N1
Outgoing: < 5000 µg/mL

----------
# ASSAY_PROCEDURE: 1 week stability tests (40° C./75% RH, 80° C., ambient light; XRPD and UPLC)
# Format: physicochemical
# TEST_CONTEXT: 80° C.
QUANTITY: change in purity after 1 week stability test (UPLC)

[[record]]
compound = "CS(=O)(=O)O.C[C@@H]1CCc2ncc(F)cc2[C@H]2CCCN2c2ccn3ncc(c3n2)C(=O)N1 [Compound 1 mesylate]"
observed_result = "no change to purity"

[[record]]
compound = "C[C@@H]1CCc2ncc(F)cc2[C@H]2CCCN2c2ccn3ncc(c3n2)C(=O)N1.O=C(O)CC(O)(CC(=O)O)C(=O)O [Compound 1 citrate]"
observed_result = "no change to purity"

[[record]]
compound = "C[C@@H]1CCc2ncc(F)cc2[C@H]2CCCN2c2ccn3ncc(c3n2)C(=O)N1.O=S(=O)(O)c1ccccc1 [Compound 1 besylate]"
observed_result = "no change to purity"


----------
# ASSAY_PROCEDURE: Solvent solubility of Compound 1 free base (stepwise solvent addition to amorphous material)
# Type: physicochemical
# TEST_CONTEXT: 40 °C, organic solvent or mixture, thermodynamic from solid; in N-Methylpyrrolidone; read-out: Approx. Solubility
QUANTITY: solubility

Incoming: Please give the documented solubility of C[C@@H]1CCc2ncc(F)cc2[C@H]2CCCN2c2ccn3ncc(c3n2)C(=O)N1
Outgoing: > 100 mg/mL

----------
# ASSAY_PROCEDURE: Solvent solubility of Compound 1 free base (stepwise solvent addition to amorphous material)
# Type: physicochemical
# TEST_CONTEXT: 40 °C, organic solvent or mixture, thermodynamic from solid; in Dichloromethane; read-out: Approx. Solubility
# Protocol: A solid Compound 1 was obtained as follows. A […] of solution containing about 330 mg of Compound 1 in warm 1,4-dioxane was divided between 33, 2 mL glass vials (1.5 mL in each). The solutions were frozen and freeze-dried by lyophilization overnight. The resulting material was then analyzed by XRPD to confirm mostly amorphous material. […]
QUANTITY: solubility

Incoming: Please give the documented solubility of C[C@@H]1CCc2ncc(F)cc2[C@H]2CCCN2c2ccn3ncc(c3n2)C(=O)N1
Outgoing: > 100 mg/mL
